The values you see were collected from ChEMBL document CHEMBL4219101.

# Species: Homo sapiens
# method-notes: Inhibition of HSP90/Cdc37 interaction assessed as reversal of drug resistance by measuring ratio of IC50 for human doxorubicin-resistant NCI-H460 cells to IC50 for human NCI-H460 cells
Recorded Ratio IC50 values for a group of compounds are listed next.
Write no unit; give the number alone.

compound	Ratio IC50
CCOC(=O)[C@@]1(C)CC[C@]2(C)CC[C@]3(C)C(=CC(=O)[C@@H]4[C@@]5(C)CC[C@H](OC(=O)CCC(=O)Nc6nc7c(Cl)cccc7s6)C(C)(C)[C@@H]5CC[C@]43C)[C@@H]2C1	1.29
COc1cccc2c1C(=O)c1c(O)c3c(c(O)c1C2=O)C[C@@](O)(C(=O)CO)C[C@@H]3O[C@H]1C[C@H](N)[C@H](O)[C@H](C)O1 [DOXORUBICIN]	7.33

Please report the measured Ratio IC50 for `CCOC(=O)[C@@]1(C)CC[C@]2(C)CC[C@]3(C)C(=CC(=O)[C@@H]4[C@@]5(C)CC[C@H](OC(=O)CCC(=O)Nc6nc7ccc(F)cc7s6)C(C)(C)[C@@H]5CC[C@]43C)[C@@H]2C1`
1.36

----------
# Test system: HepG2
# method-notes: Antiproliferative activity against human HepG2 cells after 48 hrs by MTT assay
# Assay type: functional, cell-based
# applied-conditions: HepG2, 48 h
Listed next: entries and their corresponding pIC50.
In simple prose, pIC50 is minus the logarithm base ten of a concentration in moles per litre.

CCOC(=O)[C@@]1(C)CC[C@]2(C)CC[C@]3(C)C(=CC(=O)[C@@H]4[C@@]5(C)CC[C@H](OC(=O)CCC(=O)Nc6nc7ccccc7s6)C(C)(C)[C@@H]5CC[C@]43C)[C@@H]2C1 4.59

# next compound below
Give recorded pIC50. `CC1(C)[C@@H](O)CC[C@]2(C)[C@H]3C(=O)C=C4[C@@H]5C[C@@](C)(C(=O)Nc6nc7c(Cl)cccc7s6)CC[C@]5(C)CC[C@@]4(C)[C@]3(C)CC[C@@H]12`
4.16

----------
# method-notes: Antiproliferative activity against human NCI-460 cells after 48 hrs by MTT assay
# Type: functional, cell-based
# applied-conditions: NCI-460, 48 h
Below is a list of entries, each paired with its recorded pIC50 value.
The read-out pIC50 is expressed as -log10 of concentration in moles per litre.

Answered examples (5):
CCOC(=O)[C@@]1(C)CC[C@]2(C)CC[C@]3(C)C(=CC(=O)[C@@H]4[C@@]5(C)CC[C@H](OC(=O)CCC(=O)Nc6nc7ccc(Cl)cc7s6)C(C)(C)[C@@H]5CC[C@]43C)[C@@H]2C1 4.98
CCOC(=O)[C@@]1(C)CC[C@]2(C)CC[C@]3(C)C(=CC(=O)[C@@H]4[C@@]5(C)CC[C@H](OC(=O)CCC(=O)Nc6nc7ccccc7s6)C(C)(C)[C@@H]5CC[C@]43C)[C@@H]2C1 4.78
CCOC(=O)[C@@]1(C)CC[C@]2(C)CC[C@]3(C)C(=CC(=O)[C@@H]4[C@@]5(C)CC[C@H](OC(=O)CCC(=O)Nc6nc7c(F)cccc7s6)C(C)(C)[C@@H]5CC[C@]43C)[C@@H]2C1 4.90
COc1cccc2c1C(=O)c1c(O)c3c(c(O)c1C2=O)C[C@@](O)(C(=O)CO)C[C@@H]3O[C@H]1C[C@H](N)[C@H](O)[C@H](C)O1 5.29
CCOC(=O)[C@@]1(C)CC[C@]2(C)CC[C@]3(C)C(=CC(=O)[C@@H]4[C@@]5(C)CC[C@H](OC(=O)CCC(=O)Nc6nc7ccc(F)cc7s6)C(C)(C)[C@@H]5CC[C@]43C)[C@@H]2C1 5.13

Consider the record given below.
Read off the recorded pIC50 for `CCOC(=O)[C@@]1(C)CC[C@]2(C)CC[C@]3(C)C(=CC(=O)[C@@H]4[C@@]5(C)CC[C@H](OC(=O)CCC(=O)Nc6nc7c(Cl)cccc7s6)C(C)(C)[C@@H]5CC[C@]43C)[C@@H]2C1`
4.85
